Reported combination Emax values follow for various compounds
- System: NCI-H1838 (Lung Adenocarcinoma)
- ASSAY METHOD TEXT: combination Emax (second highest fraction inhibited in the dose matrix, 72 h); higher = more inhibition; extreme values may be limits of the assay
MEASURED PARAMETER: combination Emax

compound="COc1cccc(OCCCN)c1-c1cc(Nc2cnc(C#N)cn2)n[nH]1 [Prexasertib] + C[C@@H]1COCCN1C2=NC(=NC(=C2)C3(CC3)[S@](=N)(=O)C)C4=C5C=CNC5=NC=C4 [AZD6738] (first compound max 1 µM, 7x7, partner max 10 µM)" tested_system="NCI-H1838 (Lung Adenocarcinoma)" measured_parameter="combination Emax" readout_value=0.689
compound="CC(=O)c1c(C)c2cnc(Nc3ccc(N4CCNCC4)cn3)nc2n(C2CCCC2)c1=O [Palbociclib] + CN(CC[C@H](CSC1=CC=CC=C1)NC2=C(C=C(C=C2)S(=O)(=O)NC(=O)C3=CC=C(C=C3)N4CCC(CC4)[C@H](C5=CC=CC=C5C6=CC=C(C=C6)Cl)O)S(=O)(=O)C(F)(F)F)CCO [AZD4320] (first compound max 10 µM, 7x7, partner max 1 µM)" tested_system="NCI-H1838 (Lung Adenocarcinoma)" measured_parameter="combination Emax" readout_value=0.348
compound="CN(C)CCCOc1ccc(-c2ccc3ncc4c(c3c2)n(C2CCOCC2)c(=O)n4C)cn1 [AZD0156] + O=C(c1cc(Cc2n[nH]c(=O)c3ccccc23)ccc1F)N1CCN(C(=O)C2CC2)CC1 [Olaparib] (first compound max 3 µM, partner max 3 µM)" tested_system="NCI-H1838 (Lung Adenocarcinoma)" measured_parameter="combination Emax" readout_value=0.21
